- system: UniProtKB Q9BY41
- Sequence (Q9BY41 1-377): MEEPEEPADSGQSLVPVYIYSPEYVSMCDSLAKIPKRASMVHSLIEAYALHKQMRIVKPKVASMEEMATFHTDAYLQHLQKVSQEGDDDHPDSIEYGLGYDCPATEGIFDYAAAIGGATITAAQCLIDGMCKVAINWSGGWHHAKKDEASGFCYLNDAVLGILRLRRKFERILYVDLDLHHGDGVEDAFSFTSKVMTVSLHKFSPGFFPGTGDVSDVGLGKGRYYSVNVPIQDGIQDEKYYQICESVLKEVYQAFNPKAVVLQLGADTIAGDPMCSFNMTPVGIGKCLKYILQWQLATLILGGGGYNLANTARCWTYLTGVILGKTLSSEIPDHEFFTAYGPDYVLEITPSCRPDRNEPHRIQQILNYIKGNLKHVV
- measurement-conditions: 50 ug/ml
property-measured: HDAC 8 activity, % of water-treated controls
The answer should read as a number with its unit following.

INSERT INTO results (compound, system, endpoint_value) VALUES
  ('CCCC(=O)N[C@@H](CC(C)C)C(=O)[O-].CCCC(=O)N[C@@H](CC(C)C)C(=O)[O-].[Zn+2] [Zn di-(n-butyryl leucinate), Zinc di-(n-butyryl leucinate)]', 'UniProtKB Q9BY41', '16%'),
  ('CCCC(=O)[O-].[Na+] [Sodium butyrate, reference compound]', 'UniProtKB Q9BY41', '25%'),
  ('CCCC(=O)NCCCC[C@H](NC(=O)CCC)C(=O)[O-].CCCC(=O)NCCCC[C@H](NC(=O)CCC)C(=O)[O-].[Zn+2] [Zn di-(di-n-butyryl lysinate), Zinc di-(di-n-butyryl lysinate)]', 'UniProtKB Q9BY41', '15%');

Note: attention shifts to another entry.
Annotate the compound CCCC(=O)NCCCCC(NC(=O)CCC)C(=O)[O-].CCCC(=O)NCCCCC(NC(=O)CCC)C(=O)[O-].[Ca+2] (stereo not shown) [Ca di-(di-n-butyryl lysinate), calcium di-(di-n-butyryl lysinate)] with its measured HDAC 8 activity, % of water-treated controls.
174%

Origin of the recorded values: patent US20260041620A1
